Origin of measurements: patent US9035071B2

molecular target: human recombinant prostanoid EP4 receptor (Homo sapiens, UniProt P35408); construct: expressed in transfected cells; co-transfected with chimeric Gqs-HA; assay: FLIPR Ca2+ signaling, PG antagonist activity, EP4; type: cell-based; settings: antagonism of standard agonist PGE2, HEK-293 EBNA stable cells with chimeric Gqs
Sequence (P35408 whole entry): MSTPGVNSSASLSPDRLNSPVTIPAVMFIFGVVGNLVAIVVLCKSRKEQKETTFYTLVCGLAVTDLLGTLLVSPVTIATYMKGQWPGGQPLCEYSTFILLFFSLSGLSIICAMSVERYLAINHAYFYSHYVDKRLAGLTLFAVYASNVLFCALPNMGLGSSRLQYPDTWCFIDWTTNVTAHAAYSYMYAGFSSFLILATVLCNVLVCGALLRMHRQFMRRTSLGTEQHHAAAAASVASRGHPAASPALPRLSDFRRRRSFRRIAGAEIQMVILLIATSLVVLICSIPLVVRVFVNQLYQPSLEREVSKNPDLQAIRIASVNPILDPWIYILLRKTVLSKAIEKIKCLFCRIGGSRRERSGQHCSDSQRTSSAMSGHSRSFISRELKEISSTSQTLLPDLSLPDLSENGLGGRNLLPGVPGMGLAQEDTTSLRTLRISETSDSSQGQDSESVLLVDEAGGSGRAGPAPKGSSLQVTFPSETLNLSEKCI
What Kb was measured for each of the following?
Give just the number in nM; leave the unit off.

Form field Kb, entry CCCc1nn(Cc2cc(Cl)ccc2OCC(CC)CC)cc1C(=O)O : 4900

// CCC(CC)COc1ccc(Cl)cc1Cn1nc(C)c(C(=O)O)c1C : Kb value = 860

compound Cc1c(C(=O)O)cnn1Cc1cc(Cl)ccc1OCC(C)C , Kb observed: 3300

Noted for CCC(CC)COc1ccc(C(F)(F)F)cc1Cn1ncc(C(=O)O)c1C : its Kb reads 1600

CCC(CC)COc1ccc(Br)cc1Cn1ncc(C(=O)O)c1N yielded Kb of 300

----------
Molecular target: human recombinant prostanoid EP1 receptor (Homo sapiens)
Construct: expressed in transfected cells
Sequence (P34995 1-402): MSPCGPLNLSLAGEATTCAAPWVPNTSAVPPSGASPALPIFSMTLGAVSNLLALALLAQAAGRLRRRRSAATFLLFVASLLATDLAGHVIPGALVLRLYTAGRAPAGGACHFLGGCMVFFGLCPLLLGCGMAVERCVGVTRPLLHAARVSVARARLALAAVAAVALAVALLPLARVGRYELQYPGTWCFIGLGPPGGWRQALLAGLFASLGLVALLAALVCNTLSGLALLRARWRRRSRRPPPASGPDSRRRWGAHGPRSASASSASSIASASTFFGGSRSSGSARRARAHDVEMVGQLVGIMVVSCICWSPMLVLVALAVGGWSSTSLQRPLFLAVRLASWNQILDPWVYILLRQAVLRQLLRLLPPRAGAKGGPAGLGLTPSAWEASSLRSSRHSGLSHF
Assay: FLIPR Ca2+ signaling, PG antagonist activity, EP1
Format: cell-based
Settings: antagonism of standard agonist PGE2, HEK-293 EBNA stable cells
Give measured Kb for each item. Keep answers brief.

Reported Kb for CCC(CC)COc1ccc(Cl)cc1Cn1cc(C(=O)O)cn1 [Example 4] was 140 nM

Please fill in: Kb reported for CCC(CC)COc1ccc(Br)cc1Cn1ncc(C(=O)O)c1N [Example 16] = 60 nM

Given item Cc1c(C(=O)O)cnn1Cc1cc(Cl)ccc1OCC1CCCC1 [Example 12] , the value recorded as its Kb is 30 nM

Sure, the documented Kb for CCC(CC)COc1ccc(Br)cc1Cn1ncc(C(=O)O)c1C [Example 2] is 33 nM

// sample CCCc1nn(Cc2cc(Cl)ccc2OCC(CC)CC)cc1C(=O)O [Example 6] , its Kb was 1500 nM

The molecule listed as CCC(CC)COc1ccc(Cl)cc1Cn1ncc(C(=O)O)c1C [Example 10] shows Kb equal to 50 nM

response.value for CCC(CC)COc1ccc(C(F)(F)F)cc1Cn1cc(C(=O)O)c(C)n1 [Example 9] (field: Kb) = 440 nM

Record summary for Cc1c(C(=O)O)cnn1Cc1cc(Cl)ccc1OCC(C)C [Example 11] : reported Kb = 30 nM

Sure, the documented Kb for CCC(CC)COc1ccc(C(F)(F)F)cc1Cn1ncc(C(=O)O)c1C [Example 8] is 40 nM

Record summary for Cc1c(C(=O)O)cnn1Cc1cc(Br)ccc1OCC(C)(C)C [Example 14] : reported Kb = 30 nM

----------
Biological target: human recombinant prostanoid EP3 receptor (Homo sapiens, UniProt P43115)
Construct: expressed in transfected cells; co-transfected with chimeric Gqi-HA
Sequence (P43115 1-390): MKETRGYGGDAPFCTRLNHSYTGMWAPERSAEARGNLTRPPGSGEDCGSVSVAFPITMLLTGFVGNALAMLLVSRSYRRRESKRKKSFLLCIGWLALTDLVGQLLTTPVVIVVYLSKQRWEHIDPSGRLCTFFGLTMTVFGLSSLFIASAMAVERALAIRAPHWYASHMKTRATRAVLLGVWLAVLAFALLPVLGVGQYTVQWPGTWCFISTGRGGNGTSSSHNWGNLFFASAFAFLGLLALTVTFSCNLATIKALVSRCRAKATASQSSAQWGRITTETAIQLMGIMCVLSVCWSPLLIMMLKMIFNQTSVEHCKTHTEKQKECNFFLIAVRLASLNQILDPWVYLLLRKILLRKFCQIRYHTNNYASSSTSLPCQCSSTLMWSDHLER
Test: FLIPR Ca2+ signaling, PG antagonist activity, EP3
Format: cell-based
Settings: antagonism of standard agonist PGE2, HEK-293 EBNA stable cells with chimeric Gqi
measured.metric: Kb

Given item CCC(CC)COc1ccc(C(F)(F)F)cc1Cn1ncc(C(=O)O)c1C , the value recorded as its Kb is ≥ 10 µM

response.value for CCC(CC)COc1ccc(OC(F)(F)F)cc1Cn1ncc(C(=O)O)c1C (field: Kb) = ≥ 10 µM

The measured Kb associated with CCC(CC)COc1ccc(Cl)cc1Cn1nc(C)c(C(=O)O)c1C reads ≥ 10 µM

get_value(item= Cc1c(C(=O)O)cnn1Cc1cc(Cl)ccc1OCC1CCCC1 , readout=Kb) returns ≥ 10 µM

The value of Kb measured for the compound CCC(CC)COc1ccc(Cl)cc1Cn1ncc(C(=O)O)c1C turned out to be 3.9 µM

----------
target: human recombinant prostanoid DP1 receptor (Homo sapiens, UniProt Q13258); construct: expressed in transfected cells; co-transfected with chimeric Gqs-HA; test: FLIPR Ca2+ signaling, PG antagonist activity, DP; format: cell-based; details: antagonism of standard agonist BW 245C, HEK-293 EBNA stable cells with chimeric Gqs
Sequence (Q13258 whole entry): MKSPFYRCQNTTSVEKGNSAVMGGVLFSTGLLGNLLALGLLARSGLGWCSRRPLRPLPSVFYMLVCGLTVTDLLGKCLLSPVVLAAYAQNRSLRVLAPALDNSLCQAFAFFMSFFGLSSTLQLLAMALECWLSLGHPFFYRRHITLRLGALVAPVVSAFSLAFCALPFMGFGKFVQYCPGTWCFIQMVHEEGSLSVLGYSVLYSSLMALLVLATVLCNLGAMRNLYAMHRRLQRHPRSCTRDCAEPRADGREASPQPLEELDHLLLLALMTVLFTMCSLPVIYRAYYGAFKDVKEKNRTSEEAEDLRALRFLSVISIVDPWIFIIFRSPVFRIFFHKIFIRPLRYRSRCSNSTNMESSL
measured.metric: Kb (nM)
Expressed in nM, but write only the number.

Form: compound = CCC(CC)COc1ccc(Cl)cc1Cn1ncc(C(=O)O)c1C ; Kb = 940

Short answer for CCC(CC)COc1ccc(OC(F)(F)F)cc1Cn1ncc(C(=O)O)c1C : Kb was 780

GET /value?item= CCCc1nn(Cc2cc(Cl)ccc2OCC(CC)CC)cc1C(=O)O &field=Kb returns 5600

Memo: CCC(CC)COc1ccc(Br)cc1Cn1ncc(C(=O)O)c1C , reported Kb: 600

CCC(CC)COc1ccc(Br)cc1Cn1ncc(CC(=O)O)c1C yielded Kb of 400

Form: compound = Cc1c(C(=O)O)cnn1Cc1cc(Br)ccc1OCC(C)C ; Kb = 3500

Looking up Cc1c(C(=O)O)cnn1Cc1cc(Br)ccc1OCC(C)(C)C , I see its Kb listed as 3400

According to the records, this compound CCC(CC)COc1ccc(Br)cc1Cn1ncc(C(=O)O)c1N displays Kb of 1600

get_value(item= CCC(CC)COc1ccc(Cl)cc1Cn1cc(C(=O)O)cn1 , readout=Kb) returns 1400

Entry Cc1c(C(=O)O)cnn1Cc1cc(Cl)ccc1OCC1CCCC1 — recorded Kb = 2500

Lookup result for CCC(CC)COc1ccc(C(F)(F)F)cc1Cn1cc(C(=O)O)c(C)n1 ; measured Kb: 3900

Documented Kb of Cc1c(C(=O)O)cnn1Cc1cc(Cl)ccc1OCC(C)C : 4550

CCC(CC)COc1ccc(C(F)(F)F)cc1Cn1ncc(C(=O)O)c1C yielded Kb of 1400

The reported Kb of the compound CCC(CC)COc1ccc(Cl)cc1Cn1nc(C)c(C(=O)O)c1C was 350

----------
Assignment: determine reported Kb for the given compounds.
target: human recombinant prostanoid IP receptor (Homo sapiens, UniProt P43119); construct: expressed in transfected cells; test: FLIPR Ca2+ signaling, PG antagonist activity, IP; assay type: cell-based; settings: antagonism of standard agonist Cicaprost, HEK-293 EBNA stable cells
Sequence (P43119 whole entry): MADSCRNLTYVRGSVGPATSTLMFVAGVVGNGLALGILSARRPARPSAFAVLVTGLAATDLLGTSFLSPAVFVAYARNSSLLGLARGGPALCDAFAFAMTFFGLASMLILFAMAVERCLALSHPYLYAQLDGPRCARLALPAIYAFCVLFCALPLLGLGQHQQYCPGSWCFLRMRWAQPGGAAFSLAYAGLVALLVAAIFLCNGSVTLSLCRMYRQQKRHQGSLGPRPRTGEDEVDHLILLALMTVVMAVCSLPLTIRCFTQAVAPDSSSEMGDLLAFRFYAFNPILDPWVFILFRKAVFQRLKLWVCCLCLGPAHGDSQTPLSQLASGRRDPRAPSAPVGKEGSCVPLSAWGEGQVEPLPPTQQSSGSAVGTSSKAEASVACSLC
Unit µM implied. Number only.

Entry CCC(CC)COc1ccc(Br)cc1Cn1ncc(CC(=O)O)c1C [Example 1] ; Kb = 4.8

For CCCc1c(C(=O)O)cnn1Cc1cc(Cl)ccc1OCC(CC)CC [Example 7] the compound record lists Kb as 1.8

Kb in this record for CCC(CC)COc1ccc(Cl)cc1Cn1nc(C)c(C(=O)O)c1C [Example 5] : 0.6

response.value for Cc1c(C(=O)O)cnn1Cc1cc(Br)ccc1OCC(C)C [Example 13] (field: Kb) = 7.7

Input CCC(CC)COc1ccc(Br)cc1Cn1ncc(C(=O)O)c1N [Example 16] . Output Kb: 5.1

// Kb value for Cc1c(C(=O)O)cnn1Cc1cc(Cl)ccc1OCC(C)C [Example 11] : 8.3

The value of Kb measured for the compound Cc1c(C(=O)O)cnn1Cc1cc(Cl)ccc1OCC1CCCC1 [Example 12] turned out to be 2.65

// Kb value for CCC(CC)COc1ccc(Br)cc1Cn1ncc(C(=O)O)c1C [Example 2] : 2.4

Summary for this compound, CCC(CC)COc1ccc(Cl)cc1Cn1ncc(C(=O)O)c1C [Example 10] : Kb is 1.3

Measured Kb, CCC(CC)COc1ccc(Cl)cc1Cn1cc(C(=O)O)cn1 [Example 4] : 3.1
